# system-under-test: Endothelin-1 receptor (Homo sapiens) (UniProt P25101)
# Sequence (whole entry): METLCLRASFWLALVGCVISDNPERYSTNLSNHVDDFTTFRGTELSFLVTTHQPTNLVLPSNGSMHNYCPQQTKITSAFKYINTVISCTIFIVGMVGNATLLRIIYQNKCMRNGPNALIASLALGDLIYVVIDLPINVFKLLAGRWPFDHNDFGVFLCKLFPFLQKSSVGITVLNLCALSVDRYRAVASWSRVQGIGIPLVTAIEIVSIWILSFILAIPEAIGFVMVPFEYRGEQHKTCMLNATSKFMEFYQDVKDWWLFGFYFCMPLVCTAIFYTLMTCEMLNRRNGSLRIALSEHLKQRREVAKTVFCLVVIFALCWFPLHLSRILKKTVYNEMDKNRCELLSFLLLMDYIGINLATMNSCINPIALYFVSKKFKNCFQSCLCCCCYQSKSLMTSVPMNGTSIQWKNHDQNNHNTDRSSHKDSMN
# measurement-notes: Displacement of [3H]BQ-123 from human ETA receptor in human SK-N-MC cells at 100 ug/ml after 60 mins by scintillation counting
# Type: cell-based
The entries below are paired with their reported Activity.
Quick note: give the figure in %, leave out the unit.

molecule	unit-of-measure	Activity
Nc1nc([C@H]2[C@H](CNC(=O)c3cc(Br)c[nH]3)[C@@H](CNC(=O)c3cc(Br)c[nH]3)[C@@H]2c2c[nH]c(N)n2)c[nH]1	%	80
N=C(NCCCCCCNC(=N)NC(=N)Nc1ccc(Cl)cc1)NC(=N)Nc1ccc(Cl)cc1	%	79
CC(=O)OC(C)C(OC(C)=O)C(CCCCCCCCCCCCC1=CC(C)OC1=O)C(=O)O (centres undefined)	%	79

API: the following record is the query input.
Suppose we examine the molecule O=C1C[C@H]2S[C@H]3C[C@]2(C=C1Br)C1=C(N3)C(=O)c2[nH]cc3c2C1=NCC3 ; what Activity value has been reported?
79
